# measuredOn: IKur in human atrial myocytes (Homo sapiens, UniProt P22460)
# Construct: Human myocytes were isolated from specimens of right atrial appendage obtained from patients; endogenous in cells
# Sequence (P22460 whole entry): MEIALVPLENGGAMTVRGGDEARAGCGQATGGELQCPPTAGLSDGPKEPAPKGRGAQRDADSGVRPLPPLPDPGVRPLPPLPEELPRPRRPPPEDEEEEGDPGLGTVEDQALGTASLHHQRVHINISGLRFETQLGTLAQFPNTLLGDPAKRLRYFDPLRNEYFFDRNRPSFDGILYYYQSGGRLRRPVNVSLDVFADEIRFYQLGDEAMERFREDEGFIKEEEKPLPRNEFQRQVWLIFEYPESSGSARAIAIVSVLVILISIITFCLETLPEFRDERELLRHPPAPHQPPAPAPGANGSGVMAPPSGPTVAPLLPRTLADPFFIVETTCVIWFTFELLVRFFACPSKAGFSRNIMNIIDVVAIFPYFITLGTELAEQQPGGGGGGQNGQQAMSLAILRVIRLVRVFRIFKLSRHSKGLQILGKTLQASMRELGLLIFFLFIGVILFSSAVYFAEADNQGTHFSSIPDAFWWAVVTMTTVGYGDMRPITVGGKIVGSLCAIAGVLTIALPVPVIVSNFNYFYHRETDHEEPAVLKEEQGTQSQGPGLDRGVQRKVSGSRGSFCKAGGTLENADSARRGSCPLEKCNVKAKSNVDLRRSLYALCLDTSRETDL
# assayDetails: Voltage clamp measurement of IKur block (rested state, use-dependent, rate-dependent) in human atrial myocytes
# conditionParameters: first pulse of 10 at 1 Hz; +40 mV from -50 mV; read-out: Rested State IC50, IKur in Human Atrium
pIC50: −log10 of the molar value.
measuredQuantity: pIC50

smilesCode: COc1ccc(-n2nc(Sc3ccc(Cl)cc3)c(C)c(C#N)c2=O)cc1
measuredQuantity: pIC50
recordedValue: 6.89

---

# measuredOn: IKur in human atrial myocytes (Homo sapiens)
# Construct: Human myocytes were isolated from specimens of right atrial appendage obtained from patients; endogenous in cells; host or cells: human atrial myocytes from right atrial appendage of patients undergoing cardiopulmonary bypass
# assayDetails: Voltage clamp measurement of IKur block (rested state, use-dependent, rate-dependent) in human atrial myocytes
# Type: cell-based
# conditionParameters: 100 nM; 1st pulse @ 1 Hz; human atria; read-out: Average % Block, Rested State, 1st pulse
Listed below: inhibition at 0.1 µM values for each entry.

molecule: COc1ccc(-n2nc(Sc3ccc(C)cc3)c(C)c(C#N)c2=O)cc1
inhibition at 0.1 µM, %: 61
//
molecule: CC1CCC(C(C)C)C(P(=O)(c2ccccc2)c2ccccc2)C1 (stereo not shown)
inhibition at 0.1 µM, %: 35.6
//
molecule: COc1ccc(-n2nc(Sc3ccc(Cl)cc3)c(C)c(C#N)c2=O)cc1
inhibition at 0.1 µM, %: 63.8
//
molecule: Cc1cc(C)c(CP(=O)(c2ccccc2)c2ccccc2)c(-c2ccc(F)c(C)c2)c1
inhibition at 0.1 µM, %: 10.4
